System: NCI-H23 lung
Test: NCI-60 one-dose screen, 48 h (100 = growth as untreated, 0 = no growth, -100 = all killed)
Conditions: 10 µM unless noted
This is part of a sample that, as a whole, favours compounds with a hit. Of some 83,000 tested, about 20% had one in any assay. Active and inactive are the calls of the source. How the source made its calls: active means growth percent below 10; inactive means the rest.
Let's look at some molecules and their measured growth.

Some solved entries appear below for comparison.
Cn1c2ccc(Br)cc2c2c3c(c4c5ccccc5[nH]c4c21)C(=O)N(O)C3=O :: -42.6% (active)
Cc1ccc(S(=O)(=O)/C(=C\c2ccc(Cl)cc2)C(=O)c2ccccc2)cc1 :: 102% (inactive)
COc1cccc(-c2cc3c(O)cc(C#N)cc3[nH]2)c1 :: 92.5% (inactive)

growth in this record for COC(=O)C(Sc1ccc(Cl)cc1)C1SC(=S)N(Cc2ccccc2)C1=O (stereo not given) : 97.3% (inactive)

growth in this record for COc1cc(C2C3=C(COC3=O)Nc3cc4c(cc32)OCO4)cc2c1OCO2 (stereo not given) : 40.3% (inactive)
